Experiment: qHTS assay for small molecule disruptors of mitochondrial membrane potential screened against the NCATS CANVASS Library (AID 1347389); also: nearly all actives have a fitted effect of over 60% in size
Conditions: HepG2 mitochondrial membrane potential, m-MPI red/green ratio, 1.5 h; series mostly up to 46.1 µM
Records with an inconclusive call do not appear. Calls of active or inactive are those of the source. Calls follow the shape of the dose curve; as a rule, active = well fitted inhibition curve with a large enough effect; inconclusive = small, poorly fitted or top-dose-only effect; inactive = flat fitted curve, though single readings scatter.
Write down one outcome, taken from TRUE (active), FALSE (inactive)

Consider the following illustrative entries.
CN1C(=O)C2C(N=CN2C)N(C)C1=O (stereo not given) ... FALSE
O=Cc1ccc2n1C[C@@]1(C[C@H](O)[C@H](O)CO1)OC2 ... FALSE
C/C=C/C(=O)[C@@H](C)C1=CC(=O)C2=C(O[C@@]34CC[C@H](O)C(C)(C)[C@@H]3CC[C@H](C)[C@@]4(C)C2)C1=O ... TRUE
O=C(O)[C@@]12CO[C@@]3(O)C4CCN(CC[C@H]31)[C@H]4c1c2[nH]c2ccccc12 ... FALSE
CC[C@@H]1C[C@@]2(CC)OC(=O)[C@@]3(CC)OC(=O)[C@@H]1[C@@H]23 ... FALSE

**Q:** Test call for this compound, please: C[C@@H](O)[C@H]1OC(=O)C=C2[C@]3(C)[C@H]4[C@H](OC(=O)[C@@]4(C)[C@@H](O)[C@H]4O[C@H]43)[C@H]3O[C@@]231
**A:** FALSE

**Q:** Would you mind telling me which call this test gave CO[C@H]1/C=C/CC[C@@H](S[C@@H]2O[C@H](CO)[C@@H](O)[C@H](O)[C@H]2O)CC(=O)O[C@@H](/C(C)=C/[C@H](C)C(=O)CCCC2CC(=O)NC(=O)C2)[C@@H](C)[C@@H]1O ?
**A:** FALSE

**Q:** For CS/C=C/C(N)=O , what call appears in the results of this test?
**A:** FALSE

**Q:** Please let me know the test result on file for CN1CC[C@]2(c3cccc4c3N[C@@H]3N(C)CC[C@]43[C@@]34CCN(C)[C@@H]3Nc3c([C@]56CCN(C)[C@H]5Nc5ccccc56)cccc34)c3ccccc3N[C@H]12 .
**A:** FALSE

**Q:** Recorded call for O=C(O)CC1OC(=O)c2c(O)cccc21 (stereo not given) ?
**A:** FALSE

---

Assay: HPAF-II 18hr Apoptosis Induction qHTS against the NCATS CANVASS Library (AID 1347360)
Conditions: HPAF-II caspase-3/7 luminescence; series mostly up to 46.1 µM
Records with an inconclusive call do not appear. Activity calls are given as the source filed them. Calls come from the whole dose curve; as a rule, active = well fitted curve in the direction sought with a large enough effect; inconclusive = small, poorly fitted or top-dose-only effect, or another doubt; inactive = no such curve, though single readings can be large or run the other way.
Reply using exactly one outcome from yes for active, no for inactive

Worked set:
CN1C(=O)[C@]23SS[C@@]1(C)C(=O)N2[C@H]1Nc2ccccc2[C@]1(c1c[nH]c2ccccc12)[C@@H]3O ... yes
CC1C(=O)C23CCC1C[C@@]21O[C@H]2C(C)(C)C=CC(=O)[C@@]23COC1=O (stereo partly drawn) ... no

Next:
**Q:** Short answer needed: outcome of this test for CC(=O)NC[C@@H]1O[C@H](CC/C=C(C)/C(C)=C/C=O)[C@H](C)C[C@H]1O ?
**A:** no

---

Assay: qHTS for differential inhibitors of proliferation of Plasmodium falciparum line 3D7 (AID 1876)
Conditions: P. falciparum 3D7 proliferation inhibition; series mostly up to 28.7 µM
Results filed as inconclusive are left out. Activity calls are given as the source filed them. Calls come from the whole dose curve; as a rule, active = well fitted curve in the direction sought with a large enough effect; inconclusive = small, poorly fitted or top-dose-only effect, or another doubt; inactive = no such curve, though single readings can be large or run the other way.
Output constraint: value belongs to yes (1) = active, no (0) = inactive

**Q:** Assay result, entry N#C/C(=C\c1ccc(O)c(O)c1)C(=O)Nc1ccccc1 — outcome?
**A:** yes (1)

**Q:** Which outcome did this test record for the molecule O=C(OCCN1CCCCC1)c1c[nH]c2ccccc12 ?
**A:** no (0)

**Q:** State the result this test recorded for COc1[nH]c2ccc(F)cc2c1C(=O)OCC1CCN(CCNS(C)(=O)=O)CC1 .
**A:** yes (1)

---

Tested on: Zika virus NS2B-NS3 protease
Assay: Primary screen GU AMC qHTS for Zika virus inhibitors (AID 1347154);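 also: 0% = no-inhibitor control and -100% = no-enzyme control; nearly all actives have a fitted effect of over 70% in size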
Details: Zika NS2B-NS3 unlinked protease, AMC fluorogenic substrate; series mostly up to 54.1 µM
Results filed as inconclusive are left out. Activity calls are given as the source filed them. Calls come from the whole dose curve; as a rule, active = well fitted inhibition curve with a large enough effect; inconclusive = small, poorly fitted or top-dose-only effect; inactive = flat fitted curve, though single readings scatter.
Quantity: activity change, negative = inhibition

# count of solved cases: 5
NCCCCNS(=O)(=O)c1ccc2c(Cl)cccc2c1 ... inactive
C#C[C@]1(O)CC[C@H]2[C@H]3CCC4=Cc5oncc5C[C@]4(C)[C@@H]3CC[C@]21C ... inactive
CC(C)=CCC/C(C)=C/CC/C(C)=C/CC[C@]1(C)CCc2c(C)c(O)c(C)c(C)c2O1 ... 0.636% [at 6.83 µM] (inactive)
CCS(=O)(=O)N1CCC[C@H]2CN3CCc4cc(OC)ccc4[C@@H]3C[C@@H]21 ... inactive
CCCCC/C=C\C=C\[C@H](O)CCCCCCCC(=O)O ... 19.3% [at 0.59 µM] (inactive)

**Q:** Record request: activity change, negative = inhibition value, item CCCCC(C)(C)[C@H](O)/C=C/[C@H]1[C@H](O)CC(=O)[C@@H]1C/C=C\CCCC(=O)O
**A:** 5.54% [at 6.83 µM] (inactive)

**Q:** activity change, negative = inhibition lookup needed for CCn1ccnc1C[C@@H]1COc2ccccc2O1 , thanks.
**A:** inactive

**Q:** Tell me the measured activity change, negative = inhibition of CCCCC/C=C\C/C=C\CCCCCCCC(N)=O , please.
**A:** 15% [at 6.83 µM] (inactive)

**Q:** Any idea what its activity change, negative = inhibition is? The compound is FC(F)(F)c1cc(CO[C@H]2CCCN[C@H]2c2ccccc2)cc(C(F)(F)F)c1
**A:** inactive

**Q:** Consider the compound shown here: CO[C@H]1C[C@@H]2CC[C@@H](C)[C@@](O)(O2)C(=O)C(=O)N2CCCC[C@H]2C(=O)O[C@H](C(C)C[C@H]2CC[C@@H](O)[C@H](OC)C2)CC(=O)[C@H](C)/C=C(\C)[C@@H](O)[C@@H](OC)C(=O)[C@H](C)C[C@H](C)/C=C/C=C/C=C/1C (stereo partly specified) What is its recorded activity change, negative = inhibition?
**A:** inactive

**Q:** What does the data say about its activity change, negative = inhibition? Entry: CC(N)=NCCC[C@H](N)C(=O)O
**A:** inactive

---

Assay: Vero-766 cells viability qHTS against the NCATS CANVASS Library: Counterscreen for Zika virus inhibition assay (AID 1347394); also: nearly all actives have a fitted effect of over 60% in size
Details: Vero 766 viability, CellTiter-Glo luminescence, 72 h; series mostly up to 46.1 µM
Results filed as inconclusive are left out. Calls of active or inactive are those of the source. Calls follow the shape of the dose curve; as a rule, active = well fitted cell-killing curve with a large enough effect; inconclusive = small, poorly fitted or top-dose-only effect; inactive = flat fitted curve, though single readings scatter. Numbered stars: 1 amine (or outer) side, 2 acyl side, 3 side chain; on linkers, the order of the positions; unused ones are H or OH. Square brackets hold non-standard residues; d marks the D form. Peptide text beside a SMILES is read from it. ξ: configuration not given here. X4 = O=C(C1CC2(c3ccc(O)cc3)c3ccccc3NC2N1[*:1])[*:2]; ξW = NC(Cc1c[nH]c2ccccc12)C(=O)O; ξY = NC(Cc1ccc(O)cc1)C(=O)O
Respond only with the outcome that fits, drawn from Y = active, N = inactive

C/C=C/C(=O)[C@@H](C)C1=CC(=O)C2=C(O[C@@]34CC[C@H](O)C(C)(C)[C@@H]3CC[C@H](C)[C@@]4(C)C2)C1=O ... Y
O=Cc1ccc2n1C[C@@]1(C[C@H](O)[C@@H](CO)O1)OC2 ... N
O=Cc1ccc2n1C[C@@]1(C[C@H](O)[C@H](O)CO1)OC2 ... N
CCCCCCC[C@@H](C/C=C/CCC(=O)NCCc1c[nH]c2ccccc12)OC ... Y
C[C@@H]1O[C@@H](Oc2c(-c3ccc(O)cc3)oc3cc(O)cc(O)c3c2=O)[C@H](O)[C@H](O)[C@H]1O ... N

**Q:** Hello, I am checking results. What call was entered for C=C[C@@]1(C)CC[C@@H]([C@H](C)C(=O)/C=C/C(C)C)O1 ?
**A:** N

**Q:** What outcome does the record of this test show for CCCCCCCCC[C@@H]1C[C@@H]2CC[C@H]3[C@@H](C(=O)OCCCCN=C(N)N)[C@@H](C)N=C(N1)N23 ?
**A:** N

**Q:** What is the recorded call for this compound in the test? CC[C@H](C)[C@H](NC(=O)C(Cc1ccc(O)cc1)NC(=O)C(Cc1c[nH]c2ccccc12)NC(=O)[C@H](C)N)C(=O)N1C(C(=O)NC(Cc2ccc(O)cc2)C(=O)O)CC2(c3ccc(O)cc3)c3ccccc3NC12 (stereo partly drawn) (H-A[ξW][ξY]I[X4][ξY]-OH)
**A:** N

**Q:** Assay result, entry CC12C[C@]3(O)O[C@@H](O1)[C@]1(COC(=O)c4ccccc4)[C@@H]3CC21OC1OC(CO)C(O)C(O)C1O (stereo partly drawn) — outcome?
**A:** N

**Q:** Answer briefly: the call reported for C[C@]12CC[C@]3(C1)[C@H](CC2=O)CC(OC(=O)c1ccccc1)[C@H]1[C@@](CO)(C(=O)O)CCC[C@@]13C (stereo partly drawn) in this assay.
**A:** N

**Q:** Recorded call for C[C@@H](O)[C@H]1OC(=O)C=C2[C@]3(C)[C@H]4[C@H](OC(=O)[C@@]4(C)[C@@H](O)[C@H]4O[C@H]43)[C@H]3O[C@@]231 ?
**A:** Y

**Q:** GET /call?item= O=C1c2c(O)cc(O)cc2O[C@@H](c2ccc(O)cc2)[C@@H]1c1c(O)cc(O)c2c(=O)cc(-c3ccc(O)c(O)c3)oc12 returns the recorded outcome of this test.
**A:** N

**Q:** Which outcome was assigned to C[C@@H](CCC[C@]1(C)C(=O)C=C[C@]23C[C@H]4C[C@H](O[C@@]4(C)C2)C31)C(=O)N[C@@H](CO)C(=O)O (stereo partly drawn) in this test?
**A:** N
